# Test system: SF-295 CNS
# assay_explanation: NCI-60 one-dose screen, 48 h (100 = growth as untreated, 0 = no growth, -100 = all killed)
# condition_details: 10 µM unless noted
About 83,000 compounds went through this panel and 20% of them were active in at least one assay; those are over-represented in the sample as a whole.
For each of the compounds below, state its growth.
Give bare numbers, in %.

chemical_smiles: CCOC(=O)c1c(N)c(C#N)cn1Cc1ccc(Cl)cc1Cl
system_name: SF-295 CNS
attribute_measured: growth
endpoint_value: 80.2
--
chemical_smiles: FC(F)(F)c1cc(Br)cc(-c2cc(-c3ccc4c(c3)OCCO4)[nH]n2)c1
system_name: SF-295 CNS
attribute_measured: growth
endpoint_value: 12.3
--
chemical_smiles: Fc1ccc2nc(-c3cnn4cccnc34)sc2c1
system_name: SF-295 CNS
attribute_measured: growth
endpoint_value: 100

input: Supply reported growth belonging to this compound: CCOC(=O)C(=O)Nc1ccc2c(ccn2C(=O)c2cccc(F)c2)c1
output: 92
